# studyTarget: T1, TRBC1 (T cell receptor beta-chain constant domain 1), interaction partner protein injected in SPR (human, UniProt P01850 1-129, limits assumed)
# T1 construct: also called TCR beta constant region 1
# T1 sequence (P01850 1-129 limits assumed): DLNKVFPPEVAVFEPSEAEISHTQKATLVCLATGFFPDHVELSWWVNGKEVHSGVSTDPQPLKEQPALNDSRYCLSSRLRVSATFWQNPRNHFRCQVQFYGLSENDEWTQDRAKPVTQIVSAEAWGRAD
# assayProcedure: SPR (Biacore T200), antibody captured on anti-human IgG chip, TRBC1 injected, 25 C, 1:1 Langmuir fit
Kindly supply the reported pKd values for the records listed here.
Lab note — pKd values are minus log10 of concentrations in M.

Ask: Need pKd of Mut14 (antibody, V domains shown, Variant of hJOVI-1; IgG format; also called VH T28K, Y32F, A100N, A107S) VH: QVQLVQSGAEVKKPGASVKVSCKASGYKFTGFVMHWVRQAPGQGLEWMGFINPYNDDIQSNERFRGRVTMTRDTSISTAYMELSRLRSDDTAVYYCARGNGYNFDGSYRFFDFWGQGTMVTVSS VL: DIVMTQSPLSLPVTPGEPASISCRSSQRLVHSNGNTYLHWYLQKPGQSPRLLIYRVSNRFPGVPDRFSGSGSGTDFTLKISRVEAEDVGVYYCSQSTHVPYTFGQGTKLEIK , thanks.
Result: 5.45

Ask: // returns reported pKd for input Mut11 (antibody, V domains shown, Variant of hJOVI-1; IgG format; also called VH G106A; anti-TRBC1 antibody Mut11) VH: QVQLVQSGAEVKKPGASVKVSCKASGYTFTGYVMHWVRQAPGQGLEWMGFINPYNDDIQSNERFRGRVTMTRDTSISTAYMELSRLRSDDTAVYYCARGAGYNFDAAYRFFDFWGQGTMVTVSS VL: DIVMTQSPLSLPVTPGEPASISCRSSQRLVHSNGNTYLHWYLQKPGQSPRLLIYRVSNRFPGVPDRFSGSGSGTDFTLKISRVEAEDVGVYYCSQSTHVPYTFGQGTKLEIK
Result: 6.69

Ask: Entry Mut9 (antibody, V domains shown, Variant of hJOVI-1; captured by anti-human IgG in SPR; also called VH G26P, T28K) VH: QVQLVQSGAEVKKPGASVKVSCKASPYKFTGYVMHWVRQAPGQGLEWMGFINPYNDDIQSNERFRGRVTMTRDTSISTAYMELSRLRSDDTAVYYCARGAGYNFDGAYRFFDFWGQGTMVTVSS VL: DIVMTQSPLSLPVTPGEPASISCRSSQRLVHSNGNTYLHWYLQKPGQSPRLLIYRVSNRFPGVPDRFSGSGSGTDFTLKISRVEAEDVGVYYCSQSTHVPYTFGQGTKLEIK : reported pKd = ?
Result: 7.54
